The origin of these recorded values is patent US20090298167A1.

target-system: murine IL-21R expressed on cells (murine, UniProt Q9JHX3 20-529)
Sequence (Q9JHX3 20-529 limits assumed): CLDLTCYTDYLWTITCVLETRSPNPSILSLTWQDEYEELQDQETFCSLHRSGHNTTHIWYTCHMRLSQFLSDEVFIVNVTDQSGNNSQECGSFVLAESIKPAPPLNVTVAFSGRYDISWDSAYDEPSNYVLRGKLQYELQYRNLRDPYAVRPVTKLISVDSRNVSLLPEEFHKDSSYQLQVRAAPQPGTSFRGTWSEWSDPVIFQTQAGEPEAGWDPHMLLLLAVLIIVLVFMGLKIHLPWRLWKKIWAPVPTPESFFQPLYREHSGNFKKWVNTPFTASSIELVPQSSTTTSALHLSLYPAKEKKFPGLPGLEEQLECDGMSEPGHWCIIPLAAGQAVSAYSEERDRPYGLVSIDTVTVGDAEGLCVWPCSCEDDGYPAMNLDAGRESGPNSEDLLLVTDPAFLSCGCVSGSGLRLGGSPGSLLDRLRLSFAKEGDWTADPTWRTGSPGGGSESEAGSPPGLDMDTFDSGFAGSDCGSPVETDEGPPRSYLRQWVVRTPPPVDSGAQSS
test-description: cell-based or functional assay
In this section, each of the binders is paired with its reported IC50 (nM) in Murine IL-21R-BaF3 Neutralization Assay.
reported-property: IC50 (nM) in Murine IL-21R-BaF3 Neutralization Assay

[
  {
    "binder": "scFv L2 (scFv) scFv: QVQLQESGPGLVKTSETLSLTCAVSGYSISSGYYWGWIRQPPGKGLEWIGSISHTGNTYYNPPLKSRVTISVDTSKNQFSLKLSSVTAADTAVYYCARGGGISRPEYWGKGTLVTVSSGGGGSGGGGSGGGGSALSSELTQDPPVSVALGQTVTLTCQGDSLRTYYASWYQQKSGQAPILLLYGKHKRPSGIPDRFSGSTSGDTASLTITGAQAEDEADYYCVARSVVGNPHVLFGGGTQLTVL",
    "quantitative-readout": 2.41
  },
  {
    "binder": "scFv L11 (scFv) scFv: QVQLQESGPGLVKTSETLSLTCAVSGYSISSGYYWGWIRQPPGKGLEWIGSISHTGNTYYNPPLKSRVTISVDTSKNQFSLKLSSVTAADTAVYYCARGGGISRPEYWGKGTLVTVSSGGGGSGGGGSGGGGSALSSELTQDPPVSVALGQTVTLTCQGDSLRTYYASWYQQKSGQAPILLLYGKHKRPSGIPDRFSGSTSGDTASLTITGAQAEDEADYYCSSRSRHGNPHVLFGGGTQLTVL",
    "quantitative-readout": 10
  }
]
